tgt: UniProt Q03131
Sequence (Q03131 1613-1790 limits assumed): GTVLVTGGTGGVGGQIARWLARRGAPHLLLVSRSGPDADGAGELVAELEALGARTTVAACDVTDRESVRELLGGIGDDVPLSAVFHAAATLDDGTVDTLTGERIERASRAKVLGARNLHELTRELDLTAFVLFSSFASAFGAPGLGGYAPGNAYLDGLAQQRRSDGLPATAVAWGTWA
readout: Kd (mM)
Give just the number in mM; leave the unit off.

Requested read-out: Kd. Entry: CCC(=O)C(C)C(=O)SCCNC(C)=O (racemic) 7.7
